Reference source for all entries: PubChem BioAssay (NCI)

# System: SNB-19 CNS
# ASSAY METHOD TEXT: NCI-60 one-dose screen, 48 h (100 = growth as untreated, 0 = no growth, -100 = all killed)
# CONDITION CONTEXT: 10 µM unless noted
About 83,000 compounds went through this panel and 20% of them were active in at least one assay; those are over-represented in the sample as a whole.
# reported growth; entries follow
State just the number; it will be interpreted in %.

These solved cases illustrate the format of a correct answer.
{"columns": ["COMPOUND", "growth / %"],
 "data": [
  ["O=c1[nH]c(=O)n(C2CC(O)C(CO)O2)cc1C(F)(F)F (stereo not drawn)", 55.6],
  ["COc1ccc2c(c1)C(=O)/C(=C/c1ccc([N+](=O)[O-])s1)O2", -5.72],
  ["O=C(NCCc1ccccc1)C1CCC(=O)N1Cc1ccc(Br)cc1 (stereo not drawn)", 96.7],
  ["c1ccc(Nc2nnc(-c3cc(-c4cccnc4)n(-c4ccccc4)n3)s2)cc1", 102],
  ["O=C(CSc1nnc(Nc2ccccc2)s1)NCCc1ccc(F)cc1", 100]
]}

### Prompt Item `Cc1cc(C(=O)O)c(C)cc1C(=O)O` has what recorded growth?
### Response 107

### Prompt Check CC1CC(C)/C(=N/NC(N)=O)C(C(O)CC2CCC(=O)NC2=O)C1 (stereo not drawn) too.
### Response 31.4

* * *

# System: K-562 leukemia
# ASSAY METHOD TEXT: NCI-60 one-dose screen, 48 h
# CONDITION CONTEXT: 10 µM unless noted
This is part of a sample that, as a whole, favours compounds with a hit. Of some 83,000 tested, about 20% had one in any assay. Calls of active or inactive are those of the source. Rule for the calls: active = growth percent below 10; inactive = the rest.
Lab note: assign the record to one of t = active, f = inactive

{"columns": ["MOLECULE", "SYSTEM NAME", "CATEGORY LABEL"],
 "data": [
  ["Cc1cc2c(cc1[N+](=O)[O-])NC(CNC(C)C)CC2 (stereo not given)", "K-562 leukemia", "f"]
]}

### Prompt Hello, I am checking results. What call was entered for `Nc1nc(SCC2(CCl)COC2)c2[nH]cnc2n1` ?
### Response f

### Prompt Check `Clc1ccc([C@@H]2C[C@@H]3Cc4cc(Br)c5ccccc5c4N2O3)c(Cl)c1` too.
### Response f

* * *

# Test system: MCF7 breast
# ASSAY METHOD TEXT: NCI-60 one-dose screen, 48 h (100 = growth as untreated, 0 = no growth, -100 = all killed)
# CONDITION CONTEXT: 10 µM unless noted
About 83,000 compounds went through this panel and 20% of them were active in at least one assay; those are over-represented in the sample as a whole.
# reported growth; entries follow
State just the number; it will be interpreted in %.

{"columns": ["COMPOUND", "VAL"],
 "data": [
  ["Clc1cc(Cl)c(OCC#CI)cc1Cl", 9.27],
  ["COc1ccc2nc3cc(Cl)ccc3c(Nc3cc(C(C)C)c(O)cc3C)c2c1", 15.5],
  ["Cc1cc2c(C#N)n3c(c2cc1C)C(=O)C(c1ccccc1)Oc1ccccc1-3 (stereo unspecified)", 68.2],
  ["S=c1[nH]nc2sc3ccccc3n12", 98.4]
]}

### Prompt Item `O=C(Nc1cccc2ccccc12)c1cc2c(cc1Br)OCO2` has what recorded growth?
### Response 79.9

### Prompt Check `O=C1CC(C(F)(F)F)=NN1C(=O)c1nn(-c2ccc(Cl)cc2)cc1O` too.
### Response 102

### Prompt Check `O=C(NN(C(=O)c1ccccc1)c1cccs1)c1ccccc1` too.
### Response 110

### Prompt Check `NC(=Nc1ccccc1)SCCCCSC(N)=Nc1ccccc1` too.
### Response 87.5

* * *

# System: U251 CNS
# ASSAY METHOD TEXT: NCI-60 one-dose screen, 48 h
# CONDITION CONTEXT: 10 µM unless noted
Compounds without any hit were thinned out: in the full panel of roughly 83,000, 20% have a hit. Activity calls are given as the source filed them. The calls were made as follows: active = growth percent below 10; inactive = the rest.
Lab note: assign the record to one of y (active), n (inactive)

Here are 2 compounds together with their reported answers.
{"columns": ["COMPOUND", "CATEGORY LABEL"],
 "data": [
  ["O=c1ccn(C2CCCO2)c(=O)[nH]1 (configuration not stated)", "n"],
  ["CC1SC(c2c(Cl)cccc2Cl)N(NC(=O)c2[nH]c3ccc(F)cc3c2-c2ccccc2)C1=O (configuration not stated)", "n"]
]}

Let's switch to this compound now.
### Prompt Hello, I am checking results. What call was entered for O=C(/C=C/c1cccnc1)NCCCCC1CCCN(C(=O)c2ccccc2)C1 (configuration not stated) ?
### Response n

* * *

# Test system: HT29 colon
# ASSAY METHOD TEXT: NCI-60 one-dose screen, 48 h (100 = growth as untreated, 0 = no growth, -100 = all killed)
# CONDITION CONTEXT: 10 µM unless noted
The panel holds about 83,000 compounds, 20% with a hit somewhere; the sample as a whole holds those more often.
Response field label: string, one of yes (1) (growth strictly below 30%) or no (0).

Here are 5 compounds together with their reported answers.
{"columns": ["COMPOUND", "CATEGORY LABEL"],
 "data": [
  ["NC(=O)c1ccccc1NC(=O)c1ccccc1Cl", "no (0)"],
  ["NC(=O)NN=C(C1CC1)C1CC1", "no (0)"],
  ["CC(C)[O-].CC(C)[O-].CN(CCN(C)Cc1cc(F)cc(F)c1[O-])Cc1cc(F)cc(F)c1[O-].[Ti+4]", "yes (1)"],
  ["COc1ccc2c3c(c(OCCCN(C)C)nc2c1)-c1ccc(Cl)cc1C3=O", "yes (1)"],
  ["COc1ccc(Nc2ccnc(NCCCNc3ccnc4cc(Cl)ccc34)n2)cc1", "yes (1)"]
]}

Let's switch to this compound now.
### Prompt Decide: growth of CC1SC(c2c(Cl)cccc2Cl)N(NC(=O)c2[nH]c3ccc(F)cc3c2-c2ccccc2)C1=O (configuration not stated) strictly below 30%?
### Response no (0)

* * *

# reported growth; entries follow
# System: PC-3 prostate
# ASSAY METHOD TEXT: NCI-60 one-dose screen, 48 h (100 = growth as untreated, 0 = no growth, -100 = all killed)
# CONDITION CONTEXT: 10 µM unless noted
About 83,000 compounds went through this panel and 20% of them were active in at least one assay; those are over-represented in the sample as a whole. Active and inactive are the calls of the source. The calls were made as follows: active = growth percent below 10; inactive = the rest.

These solved cases illustrate the format of a correct answer.
{"columns": ["MOLECULE", "growth"],
 "data": [
  ["CO[C@H]1/C=C/O[C@@]2(C)Oc3c(C)c(O)c4c(O)c(c(/C=N/N5C(C)CN(Cc6ccccc6)CC5C)c(O)c4c3C2=O)NC(=O)/C(C)=C\\C=C\\[C@H](C)[C@H](O)[C@@H](C)[C@@H](O)[C@@H](C)[C@H](OC(C)=O)[C@@H]1C (some centres undefined)", "-19.5% (active)"],
  ["C/C(=C\\CCc1ccoc1)CC/C=C(\\C)CCCN1CCC(CO)CC1", "57.8% (inactive)"],
  ["O=C(Nc1ccc(Cl)cc1Cl)Nc1ccc(-c2cccnc2)cc1N1CCC(CO)CC1", "16.6% (inactive)"]
]}

Alright, here's another molecule for you.
### Prompt Item `S=C(Nc1ccc(C2=NCCN2)cc1)Nc1ccc(C2=NCCN2)cc1` has what recorded growth?
### Response 100% (inactive)

* * *

# reported growth; entries follow
# Tested on: IGROV1 ovarian
# ASSAY METHOD TEXT: NCI-60 one-dose screen, 48 h (100 = growth as untreated, 0 = no growth, -100 = all killed)
# CONDITION CONTEXT: 10 µM unless noted
# Procedure: Growth inhibition of the IGROV1 human tumor cell line is measured as a screen for anti-cancer activity. Cells are grown in 96 well plates and exposed to the test compound for 48 hours. Compounds are tested at a single concentration, which is 10^-5 M for most compounds. The reported endpoint is percent growth (GI% or GIPRCNT), where numbers from 0 - 100% represent growth inhibition, and numbers from -100% - 0 represent cell death. For example, a value of 40 represents 60% growth inhibition. […]
This is part of a sample that, as a whole, favours compounds with a hit. Of some 83,000 tested, about 20% had one in any assay.
State just the number; it will be interpreted in %.

These solved cases illustrate the format of a correct answer.
{"columns": ["COMPOUND", "SYSTEM NAME", "PROPERTY NAME", "UNITS", "VAL"],
 "data": [
  ["Cc1ccsc1/C=C/C1=NCCCN1C", "IGROV1 ovarian", "growth", "%", 101],
  ["c1coc([C@@H]2C[C@@H]3Cc4ccc5ccccc5c4N2O3)c1", "IGROV1 ovarian", "growth", "%", 113],
  ["Cc1nnc(Nc2ccc(NC(=O)Nc3ccc(Cl)cc3)cc2)c2ccccc12", "IGROV1 ovarian", "growth", "%", 62],
  ["COc1cc(C2NC(c3ccc(Cl)cc3)C(C)C(=NC(=O)c3cnccn3)C2C)cc(OC)c1OC (stereo not drawn)", "IGROV1 ovarian", "growth", "%", 91.6],
  ["c1ccc(-n2nnnc2-c2cccc3ccccc23)cc1", "IGROV1 ovarian", "growth", "%", 31.4],
  ["O=C(c1ccccc1)c1ccccc1Cl", "IGROV1 ovarian", "growth", "%", 106],
  ["OC(Cc1cccnc1)c1ccccc1 (stereo not drawn)", "IGROV1 ovarian", "growth", "%", 114],
  ["COc1ccc(/C=C2\\NC(=S)NC2=O)cc1", "IGROV1 ovarian", "growth", "%", 96]
]}

Alright, here's another compound for you.
### Prompt Item `Cc1ccc(NC(=O)Nc2ccc(-c3cccnc3)cc2N2CCC(CO)CC2)cc1` has what recorded growth?
### Response 63.1
